# Tested on: U2OS
# Test name: Multiplex assay against U2OS
# Assay type: toxicity, cell-based
# Assay context: human, 24 h, 10 µM, compound concentration 10 uM, replicate 1
Each entry below lists one item and its recorded Population Apoptotic (%) value.
Just the number please, in %, no unit attached.

# annotated cases, reported Population Apoptotic (%) shown
CCCCCNC(=N)N/N=C/c1c[nH]c2ccc(OC)cc12.O=C(O)/C=C\C(=O)O [TEGASEROD MALEATE] ... 85
CC[C@@]1(O)C(=O)OCc2c1cc1n(c2=O)Cc2cc3ccccc3nc2-1 [CAMPTOTHECIN] ... 80
CC(/C=C1\SC(=S)N(CCCC(=O)Nc2ccc(C(=O)O)c(O)c2)C1=O)=C\c1ccccc1 ... 36

Please look at the following compound next.
Endpoint output: Population Apoptotic (%) of C[C@@H](Oc1cc(-n2cnc3ccc(CN4CCN(C)CC4)cc32)sc1C(N)=O)c1ccccc1C(F)(F)F [GSK-461364] . Value?
90

* * *

# System: HEK-293T
# Test name: Multiplex assay against HEK293T
# Format: toxicity, cell-based
# Assay context: human, 12 h, 10 µM, compound concentration 10 uM, replicate 1
Binarize Population Fragmented Nuclei (%) at 20%; below is met, at or above is not met.

Consider the worked cases shown below.
c1ccc(-c2oc3ncnc(NC[C@@H]4CCCO4)c3c2-c2ccccc2)cc1 ... met
CCOC(=O)CCNc1cc(N2CCc3ccccc3CC2)nc(-c2ccccn2)n1 ... met
CC[C@H](Nc1ncnc2[nH]cnc12)c1nc2cccc(F)c2c(=O)n1-c1ccccc1 [IDELALISIB] ... met

Does the reported Population Fragmented Nuclei (%) of N#Cc1cccc(C(=O)Nc2cc(-c3ccccc3)nn2-c2ccccc2)c1 stay below 20%?
met

Does the reported Population Fragmented Nuclei (%) of CCCc1cc(C)[nH]c(=O)c1CNC(=O)c1cc(-c2ccc(N3CCN(C(C)C)CC3)nc2)cc2c1cnn2C(C)C stay below 20%?
met

Does the reported Population Fragmented Nuclei (%) of Cl.Cn1c2c(c3ccc(Cl)c(Cl)c31)C(C#N)C1(CCNCC1)NC2=O (stereo not drawn) stay below 20%?
met

* * *

# System: HEK-293T
# Test name: Multiplex assay against HEK293T
# Format: toxicity, cell-based
# Assay context: human, 12 h, 10 µM, compound concentration 10 uM, replicate 2
# if value of Population Hoechst High Intensity Objects (%) reaches 8%, tag satisfied; if it stays below, tag not satisfied

Cl.NC[C@@H]1O[C@H](C23CC4CC(CC(C4)C2)C3)Cc2c1ccc(O)c2O ... satisfied
C[C@@H](Oc1cc(-n2cnc3ccc(CN4CCN(C)CC4)cc32)sc1C(N)=O)c1ccccc1C(F)(F)F ... satisfied
CN(c1cc(C(F)(F)F)nc(OCCC(=O)O)n1)c1cccc2c1CCC2 ... not satisfied

Let's switch to this molecule now.
Quick check, Population Hoechst High Intensity Objects (%) >= 8%? Cc1ccc(S(=O)(=O)NC2c3ccccc3Oc3ccccc32)cc1
not satisfied

* * *

# Tested on: Fibroblast
# Test name: Multiplex assay against human fibroblast
# Format: toxicity, cell-based
# Assay context: 12 h, 1 µM, compound concentration 1 uM, replicate 1
Each entry below lists one item and its recorded Population Mitotic Cells (%) value.
Just the number please, in %, no unit attached.

Endpoint output: Population Mitotic Cells (%) of CCOC(=O)CCNc1cc(N2CCc3ccccc3CC2)nc(-c2ccccn2)n1 . Value?
10

Endpoint output: Population Mitotic Cells (%) of CC(/C=C1\SC(=S)N(CCCC(=O)Nc2ccc(C(=O)O)c(O)c2)C1=O)=C\c1ccccc1 . Value?
40

Endpoint output: Population Mitotic Cells (%) of CCCCCNC(=N)N/N=C/c1c[nH]c2ccc(OC)cc12.O=C(O)/C=C\C(=O)O [TEGASEROD MALEATE] . Value?
34

Endpoint output: Population Mitotic Cells (%) of Cc1c(P(=S)(c2ccccc2)c2ccccc2)n2ccccc2[n+]1C/C=C/c1ccccc1.[Br-] . Value?
36

Endpoint output: Population Mitotic Cells (%) of CC(C)[C@H](CO)Nc1nc(Nc2cccc(Cl)c2)c2ncn(C(C)C)c2n1 [PURVALANOLA] . Value?
35

Endpoint output: Population Mitotic Cells (%) of Cc1c(Nc2ccc(S(=O)(=O)N3CCN(C)CC3)cc2F)nc2ccc(-c3cnn(C4CC4)c3)cn2c1=O . Value?
33

Endpoint output: Population Mitotic Cells (%) of C[C@@H](Oc1cc(-n2cnc3ccc(CN4CCN(C)CC4)cc32)sc1C(N)=O)c1ccccc1C(F)(F)F [GSK-461364] . Value?
25
